target: LFA-1/ICAM-1 (Homo sapiens, UniProt P20701); construct: endogenous in cells; ICAM-1-Cκ fusion: made in house in the baculovirus system; assay: Cell free assay: binding of soluble human ICAM-1 to immobilized human LFA-1; conditions: immobilized human LFA-1, biotinylated ICAM-1, read-out: IC50, inhibition of adhesion of LFA-1 to ICAM-1
Sequence (P20701 26-1170): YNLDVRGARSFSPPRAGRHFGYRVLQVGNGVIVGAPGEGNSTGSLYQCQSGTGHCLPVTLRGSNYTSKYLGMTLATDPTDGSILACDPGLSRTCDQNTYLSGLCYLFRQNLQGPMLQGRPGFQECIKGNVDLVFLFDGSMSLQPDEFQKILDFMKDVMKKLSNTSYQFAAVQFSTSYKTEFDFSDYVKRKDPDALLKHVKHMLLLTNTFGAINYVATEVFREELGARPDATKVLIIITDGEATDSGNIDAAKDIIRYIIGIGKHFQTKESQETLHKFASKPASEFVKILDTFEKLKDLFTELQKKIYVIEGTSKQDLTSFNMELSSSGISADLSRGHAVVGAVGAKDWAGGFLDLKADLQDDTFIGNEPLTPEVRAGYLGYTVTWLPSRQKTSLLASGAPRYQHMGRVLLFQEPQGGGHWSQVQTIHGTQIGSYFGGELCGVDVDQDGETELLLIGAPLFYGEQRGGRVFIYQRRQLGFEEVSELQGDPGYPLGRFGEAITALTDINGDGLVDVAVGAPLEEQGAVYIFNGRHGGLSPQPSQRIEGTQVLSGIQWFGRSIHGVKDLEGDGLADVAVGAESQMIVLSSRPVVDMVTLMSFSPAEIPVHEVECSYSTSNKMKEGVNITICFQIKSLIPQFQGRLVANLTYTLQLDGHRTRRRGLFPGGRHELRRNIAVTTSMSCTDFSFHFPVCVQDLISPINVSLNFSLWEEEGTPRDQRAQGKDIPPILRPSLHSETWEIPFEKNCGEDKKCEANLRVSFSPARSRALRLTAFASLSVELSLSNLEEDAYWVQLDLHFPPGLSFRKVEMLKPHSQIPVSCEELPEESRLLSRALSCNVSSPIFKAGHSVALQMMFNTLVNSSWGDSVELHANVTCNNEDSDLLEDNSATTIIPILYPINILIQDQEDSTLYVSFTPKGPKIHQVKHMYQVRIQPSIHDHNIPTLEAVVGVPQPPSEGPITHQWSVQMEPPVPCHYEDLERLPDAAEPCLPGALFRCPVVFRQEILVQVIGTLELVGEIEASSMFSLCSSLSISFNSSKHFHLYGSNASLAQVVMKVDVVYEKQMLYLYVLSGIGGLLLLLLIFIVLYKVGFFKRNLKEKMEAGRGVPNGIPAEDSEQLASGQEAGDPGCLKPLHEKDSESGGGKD
Sequence (P05107 23-769 partner): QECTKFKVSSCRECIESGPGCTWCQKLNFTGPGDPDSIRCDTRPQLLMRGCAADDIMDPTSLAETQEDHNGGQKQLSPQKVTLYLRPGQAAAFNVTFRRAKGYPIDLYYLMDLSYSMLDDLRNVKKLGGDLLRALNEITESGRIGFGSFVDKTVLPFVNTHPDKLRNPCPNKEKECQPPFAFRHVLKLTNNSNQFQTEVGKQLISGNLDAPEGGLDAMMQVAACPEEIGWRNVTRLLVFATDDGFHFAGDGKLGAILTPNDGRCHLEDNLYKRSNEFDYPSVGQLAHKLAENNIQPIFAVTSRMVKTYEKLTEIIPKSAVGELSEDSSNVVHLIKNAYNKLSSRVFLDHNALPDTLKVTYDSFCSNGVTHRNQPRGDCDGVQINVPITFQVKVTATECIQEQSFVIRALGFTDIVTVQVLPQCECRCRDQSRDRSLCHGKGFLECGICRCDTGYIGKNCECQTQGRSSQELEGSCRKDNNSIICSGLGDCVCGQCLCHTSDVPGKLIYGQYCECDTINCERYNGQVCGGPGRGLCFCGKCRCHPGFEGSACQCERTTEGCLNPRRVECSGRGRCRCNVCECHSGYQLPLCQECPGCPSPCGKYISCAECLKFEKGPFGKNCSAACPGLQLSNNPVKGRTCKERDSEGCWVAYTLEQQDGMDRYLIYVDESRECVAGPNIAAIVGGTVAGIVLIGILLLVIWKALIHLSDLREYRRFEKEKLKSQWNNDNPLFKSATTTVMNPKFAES
In this section we review reported IC50 values for a set of compounds.
Write the number in µM without appending the unit.

IN: I am curious: what IC50 value has been reported for C[C@@H]1CCN([C@H](Cc2cccc3ccccc23)C(N)=O)C(=O)[C@H](c2cccc(Cl)c2)N1C(=O)Cc1ccc2c(c1)OCO2 [Example 14] ?
OUT: 0.09

IN: I am curious: what IC50 value has been reported for CC1CCN(C(Cc2cccc3ccccc23)C(N)=O)C(=O)C(c2cccc(F)c2)N1C(=O)Cc1ccc2c(c1)OCO2 (centres unmarked) [Example 13] ?
OUT: 0.43
